Test system: DIPGX37 (H3.3 K27M diffuse intrinsic pontine glioma line)
Assay: area under dose-response curve of % growth inhibition (log2 RLU vs DMSO / staurosporine), 1e-11 to 1e-4 M (% x log10 M); higher = more growth inhibition
experimental.readout: area under dose-response curve
One number for each entry.

Challenge: Look up area under dose-response curve: CC(C)(C)C(=O)OCOP(=O)(COCCn1cnc2c(N)ncnc21)OCOC(=O)C(C)(C)C
Response given: 53.7

Challenge: Record request: area under dose-response curve value, item CCN(CCO)CCCC(C)Nc1ccnc2cc(Cl)ccc12 (stereo not drawn) [HYDROXYCHLOROQUINE]
Response given: 8.17

Challenge: May I ask what area under dose-response curve has been recorded for COc1cc(NC(C)CCCN)c2ncccc2c1 (stereo not drawn) ?
Response given: 116

Challenge: Bench note: what area under dose-response curve did CCc1c2c(nc3ccc(O)cc13)-c1cc3c(c(=O)n1C2)COC(=O)[C@]3(O)CC show?
Response given: 125

Challenge: Which area under dose-response curve reading was recorded for the molecule COc1ccc(C[C@H](NC(=O)[C@H](C)NC(=O)CN2CCOCC2)C(=O)N[C@@H](Cc2ccccc2)C(=O)C2(C)CO2)cc1 (stereo in doubt) ?
Response given: 242

// each listed molecule needs a value for area under dose-response curve
1. CCOC(=O)Nc1cc(-c2ccc(C)c(NS(C)(=O)=O)c2)nn2c(C)nnc12
2. CC(C)(C)c1cnc(CSc2cnc(NC(=O)C3CCNCC3)s2)o1

Response given:
[66.5, 192]

Challenge: Return reported area under dose-response curve; argument: Cc1ncc(CNC(=O)N(CCCl)N=O)c(N)n1
Response given: 0

====

Test system: HGGX39 (paediatric high-grade glioma line)
Test: maximal growth inhibition (yFin) relative to DMSO / staurosporine; higher = more efficacious
Decide by maximal growth inhibition: equal to or exceeding 90% means Condition met, less means Condition not met.

Challenge: Hi, just wondering whether CCN(CC)CCOc1ccc(C(=C(Cl)c2ccccc2)c2ccccc2)cc1 shows maximal growth inhibition of 90% or higher.
Response given: Condition not met

Challenge: Check if maximal growth inhibition >= 90% (inclusive). Item: CC(=O)c1cc([N+](=O)[O-])c(Sc2ccc(F)cc2F)s1
Response given: Condition not met

Challenge: Determine whether measured maximal growth inhibition meets or exceeds 90% for C[C@@H](NCCCc1cccc(C(F)(F)F)c1)c1cccc2ccccc12
Response given: Condition met

Challenge: Hi, just wondering whether CNC(=O)c1cc(Oc2ccc(NC(=O)Nc3ccc(Cl)c(C(F)(F)F)c3)c(F)c2)ccn1 shows maximal growth inhibition of 90% or higher.
Response given: Condition not met

Challenge: Test whether the compound CCn1c(=O)c(-c2ccc(Cl)cc2Cl)cc2cnc(Nc3ccc(N4CCNCC4)c(F)c3)nc21 records maximal growth inhibition of 90% or higher.
Response given: Condition not met

Challenge: Check the entry CC(=O)OC[C@H]1O[C@@H]([S-])[C@H](OC(C)=O)[C@@H](OC(C)=O)[C@@H]1OC(C)=O.CCP(CC)CC.[Au+] : does maximal growth inhibition equal or exceed 90%?
Response given: Condition met

Continuing:
Challenge: Is the recorded value of maximal growth inhibition equal to or greater than 90% for this compound? Cc1ccc(NC2=CC(=O)c3sc(C)nc3C2=O)cc1
Response given: Condition met

Challenge: Entry Cc1nc(Nc2n[nH]c3c2CN(C(=O)N[C@H](CN(C)C)c2ccccc2)C3(C)C)c2sccc2n1 : is its maximal growth inhibition no less than 90%?
Response given: Condition not met

====

System: HABS (astrocyte control)
Assay: maximal growth inhibition (yFin) relative to DMSO / staurosporine; higher = more efficacious
Class membership depends on maximal growth inhibition alone; the intervals are low end: < 50%; middle: ≥ 50% and < 90%; high end: ≥ 90%

Challenge: Band for COc1ccc(C[C@H](NC(=O)[C@H](C)NC(=O)CN2CCOCC2)C(=O)N[C@@H](Cc2ccccc2)C(=O)C2(C)CO2)cc1 (stereo in doubt) [ONX-0914] ?
Response given: high end

Challenge: For CN1[C@@H]2CC[C@H]1C[C@@H](OC(=O)c1cc(Cl)cc(Cl)c1)C2 [BEMESETRON] , which maximal growth inhibition bin applies?
Response given: low end

Challenge: Record COC1=CC(c2cc3ccccc3[nH]2)=N/C1=C\c1[nH]c(C)cc1C [OBATOCLAX] — which class?
Response given: high end

Challenge: Looking at COc1ccc(-c2nc(N3CCOCC3)c3sc(CN(C)c4ncc(C(=O)NO)cn4)cc3n2)cn1 [CUDC-907] , which class would you pick?
Response given: high end

Challenge: Any idea which band COC(=O)Nc1nc2cc(C(=O)c3ccccc3)ccc2[nH]1 [MEBENDAZOLE] is in?
Response given: low end

Next:
Challenge: Hi, small favor: classify N#CN=C(NCCCCCCOc1ccc(Cl)cc1)Nc1ccncc1 [GMX-1778] by its maximal growth inhibition when you get a moment.
Response given: middle

Challenge: Class (by measured maximal growth inhibition) for Cc1ccc2nc(NCCN)c3ncc(C)n3c2c1
Response given: middle

Challenge: Class (by measured maximal growth inhibition) for CC(C)(C)c1cnc(CSc2cnc(NC(=O)C3CCNCC3)s2)o1
Response given: low end

====

System: DIPGX9 (diffuse intrinsic pontine glioma line)
Experiment: EC50 (inflection of fitted growth-inhibition curve) (log10 M)
experimental.readout: EC50 (log10 M)
One number for each entry.

Recorded results for 6 compounds are shown here.
Challenge: Quick one: EC50 (log10 M) of CN1[C@@H]2CC[C@H]1C[C@@H](OC(=O)c1cc(Cl)cc(Cl)c1)C2 [BEMESETRON] ?
Response given: -4.9

Challenge: Need EC50 (log10 M) of CC(C)(C)OC(=O)Nc1ccc(-c2cc(C(=O)NCCCCCCC(=O)NO)no2)cc1 [BML-281] , thanks.
Response given: -5.48

Challenge: // query EC50 (log10 M) value for entry COc1ncc(-c2ccc3nccc(-c4ccnnc4)c3c2)cc1NS(=O)(=O)c1ccc(F)cc1F [OMIPALISIB]
Response given: -7.52

Challenge: Given the entry CC(C)c1cc(-c2n[nH]c(=O)n2-c2ccc3c(ccn3C)c2)c(O)cc1O [GANETESPIB] , report its measured EC50 (log10 M).
Response given: -7.98

Challenge: Record request: EC50 (log10 M) value, item CC(C)c1cc(C(=O)N2Cc3ccc(CN4CCN(C)CC4)cc3C2)c(O)cc1O
Response given: -6.96

Challenge: Which EC50 (log10 M) is listed for C[C@@H]1O[C@@H](O[C@H]2C[C@@H](O)[C@]3(CO)[C@H]4[C@H](O)C[C@]5(C)[C@@H](C6=CC(=O)OC6)CC[C@]5(O)[C@@H]4CC[C@]3(O)C2)[C@H](O)[C@H](O)[C@H]1O [OUABAIN] ?
Response given: -6.37

Give EC50 (log10 M) for each listed item.
1. COC1=CC(c2cc3ccccc3[nH]2)=N/C1=C\c1[nH]c(C)cc1C [OBATOCLAX]
2. O=C(Nc1ccc(Nc2nccc(Nc3cc(C4CCCC4)[nH]n3)n2)cc1)Nc1cccc(C(F)(F)F)c1 [CD532]
3. CC(C)C[C@H](NC(=O)[C@H](CCc1ccccc1)NC(=O)CN1CCOCC1)C(=O)N[C@@H](Cc1ccccc1)C(=O)N[C@@H](CC(C)C)C(=O)[C@@]1(C)CO1 [CARFILZOMIB]
4. O=C(Nc1ccccc1-c1cn2c(CN3CCNCC3)csc2n1)c1cnc2ccccc2n1 [SRT1720]
5. NC(=O)Nc1sc(-c2ccc(F)cc2)cc1C(N)=O [TPCA-1]
6. C[C@@]12OC(=O)[C@]1([C@@H](O)[C@@H]1C=CCCC1)NC(=O)[C@@H]2CCCl [MARIZOMIB]

Response given:
1. -5.05
2. -6.65
3. -7
4. -5.43
5. -4.8
6. -6.99

====

Test system: DIPGX37
Assay: maximal growth inhibition (yFin) relative to DMSO / staurosporine; higher = more efficacious
Use 70% as the dividing line for maximal growth inhibition, with the line itself on the condition met side and lower values as condition not met.

Below, 2 compounds whose answers are already recorded.
Challenge: Please indicate if the recorded maximal growth inhibition for CCc1c2c(nc3ccc(O)cc13)-c1cc3c(c(=O)n1C2)COC(=O)[C@]3(O)CC meets or exceeds 70%.
Response given: condition not met

Challenge: Hello, I need to know if Cc1cn(CCN2CCN(c3ccccc3-c3cc(C#N)cc(C(=O)NCCCN4CCCC4)c3)CC2)c2ccccc12 has measured maximal growth inhibition not below 70%. Thanks!
Response given: condition met

***
Challenge: # bool: maximal growth inhibition of CN[C@H]1CC[C@@H](c2ccc(Cl)c(Cl)c2)c2ccccc21 >= 70%
Response given: condition met

Challenge: Could you verify whether the entry O=C(c1ccc(Nc2nccc(-c3cc4ccccc4s3)n2)cc1)N1CCC(N2CCCC2)CC1 shows maximal growth inhibition of no less than 70%?
Response given: condition met

Challenge: Reported maximal growth inhibition reaches at least 70% for O=C(NCC1(c2nc(-c3ccccc3)cs2)CCOCC1)c1cccc(-c2noc(C(F)(F)F)n2)c1 ?
Response given: condition not met
